# System: OVCAR-5 ovarian
# Method: NCI-60 one-dose screen, 48 h (100 = growth as untreated, 0 = no growth, -100 = all killed)
# Experimental Conditions: 10 µM unless noted
Compounds without any hit were thinned out: in the full panel of roughly 83,000, 20% have a hit.

Compound: COc1ccc(C2Nc3nc(OC)n(C)c(=O)c3N=C3c4ccccc4C(=O)C32)cc1 (centres undefined)
growth [%]: 103

Compound: O=C(Nc1ccc(C23CC4CC(CC(c5ccccc5)(C4)C2)C3)cc1)c1cccs1
growth [%]: 100

Compound: COC(=O)/C(CCC=C(C)C)=C1\[C@@H](OC(C)=O)C[C@@]2(C)[C@H]1C[C@@H](O)[C@H]1[C@@]3(C)CC[C@H](NCCCNCCCCNCCCN)[C@@H](C)[C@@H]3CC[C@@]12C
growth [%]: 88.1

Compound: COc1ccc(CCN2C(=O)CCSC2=S)cc1OC
growth [%]: 96.8

---

# Test system: NCI-H522 lung
# Method: NCI-60 one-dose screen, 48 h
# Experimental Conditions: 10 µM unless noted
# Method: Growth inhibition of the NCI-H522 human Non-Small Cell Lung tumor cell line is measured as a screen for anti-cancer activity. Cells are grown in 96 well plates and exposed to the test compound for 48 hours. Compounds are tested at a single concentration, which is 10^-5 M for most compounds. The reported endpoint is percent growth (GI% or GIPRCNT), where numbers from 0 - 100% represent growth inhibition, and numbers from -100% - 0 represent cell death. […]
Compounds without any hit were thinned out: in the full panel of roughly 83,000, 20% have a hit. Calls of active or inactive are those of the source. How the source made its calls: active means growth percent below 10; inactive means the rest.
Labels: yes = active, no = inactive

Molecule: CC(C)C[C@H](C(=O)N[C@@H](C)C(N)=O)N1CC=CCN(O)S1(=O)=O
Measurement Target: NCI-H522 lung
Qualitative Label: no
--
Molecule: CC1=C(CC(=O)c2cccc([N+](=O)[O-])c2)C(=O)c2ccccc2C1=O
Measurement Target: NCI-H522 lung
Qualitative Label: yes
--
Molecule: Nc1ncnc(N)c1NC(=O)c1ccc(OCc2ccccc2)cc1
Measurement Target: NCI-H522 lung
Qualitative Label: no
--
Molecule: COc1ccc(C2c3ccc4ccccc4c3Oc3ncn(CCCn4ccnc4)c(=N)c32)cc1OC (stereo not drawn)
Measurement Target: NCI-H522 lung
Qualitative Label: no
--
Molecule: Cc1ccccc1CNC(=O)C1CN(c2ccc(Cl)cc2)N(c2ccc(Cl)cc2)C1=O (stereo not drawn)
Measurement Target: NCI-H522 lung
Qualitative Label: no
--
Molecule: COC(=O)/C(CCC=C(C)C)=C1\[C@@H](OC(C)=O)C[C@@]2(C)[C@H]1C[C@@H](O)[C@H]1[C@@]3(C)CC[C@H](NCCO)[C@@H](C)[C@@H]3CC[C@@]12C
Measurement Target: NCI-H522 lung
Qualitative Label: no
--
Molecule: COc1cc(/C=C/C(=O)c2c(C)nc3ccccc3c2/C=C/c2ccccc2)cc(OC)c1OC
Measurement Target: NCI-H522 lung
Qualitative Label: yes
--
Molecule: CCC1=C[C@]2(C3CC(=O)N(c4ccccc4)C3=O)CC(C(C)(C)C)C[C@@H]2[C@@H]2C(=O)N(c3ccccc3)C(=O)[C@H]12 (stereo partly drawn)
Measurement Target: NCI-H522 lung
Qualitative Label: no

---

# System: SF-268 CNS
# Method: NCI-60 one-dose screen, 48 h (100 = growth as untreated, 0 = no growth, -100 = all killed)
# Experimental Conditions: 10 µM unless noted
The panel holds about 83,000 compounds, 20% with a hit somewhere; the sample as a whole holds those more often.
Parameter threshold = 70%. Response is satisfied when growth meets or exceeds it, else not satisfied.

Compound: O=C1Nc2ccccc2/C1=C/c1cccs1
Qualitative Label: satisfied

Compound: COc1cc(/C=C/C(=O)c2ccc(Cl)cc2)cc(CN2CCCCC2)c1O
Qualitative Label: satisfied

Compound: Nc1cccc(Nc2cc(S(=O)(=O)O)c(N)c3c2C(=O)c2ccccc2C3=O)c1
Qualitative Label: satisfied

Compound: COC(=O)/C(CCC=C(C)C)=C1\[C@@H](OC(C)=O)C[C@@]2(C)[C@H]1C[C@@H](O)[C@H]1[C@@]3(C)CC[C@H](NCCO)[C@@H](C)[C@@H]3CC[C@@]12C
Qualitative Label: satisfied

Compound: O=c1oc2ccc(Cl)cc2c(=O)n1-c1cc(C(F)(F)F)cc(C(F)(F)F)c1
Qualitative Label: not satisfied

Compound: c1ccc2cc3c(Nc4ccc(N5CCOCC5)cc4)ccnc3cc2c1
Qualitative Label: satisfied

Compound: O=c1oc2ccc(Br)cc2c(=O)n1-c1ccc(F)cc1F
Qualitative Label: not satisfied

Compound: Cc1ccc(Cn2c(N3CCC(C(=O)NCc4cccs4)CC3)nc3ccccc32)cc1
Qualitative Label: satisfied

Compound: CC/C=C\C[C@H](O)C/C=C1/C(=O)C=C[C@@H]1C/C=C\CCCC(=O)OCCS(=O)(=O)c1ccccc1
Qualitative Label: not satisfied

Compound: CCN1C(=O)N(CC)C2Nn3c(s/c(=C\c4ccccc4F)c3=O)=NC21 (configuration not stated)
Qualitative Label: not satisfied

Compound: Cc1ccc(F)cc1NC(=O)c1cc(Cl)ccc1Nc1ccccc1
Qualitative Label: not satisfied

Compound: O=c1c2cccc(F)c2sc2c(N3CCNCC3)nc3ccccc3c12
Qualitative Label: not satisfied

Compound: CN(C)/C=C1\SC(=Nc2ccc(Cl)cc2)NC1=O
Qualitative Label: satisfied

Compound: CCOc1ccc2nc(C)cc(Nc3ccc(Br)cc3)c2c1
Qualitative Label: satisfied

Compound: O=S(=O)(Nc1ncccn1)c1ccc(NC2Nc3nc4ccccc4nc3S2)cc1 (configuration not stated)
Qualitative Label: satisfied

Compound: CC(=O)O[C@@H]1/C=C/C(=O)N[C@@H](C)CCC/C=C/[C@@H]2CCC[C@H]21
Qualitative Label: satisfied

Compound: COc1c2ccoc2c(/C=C/C=O)c2oc(-c3ccccc3)cc(=O)c12
Qualitative Label: not satisfied

Compound: S=C1NC2(c3ccccc3)CCC(=S)N2c2ccccc21 (configuration not stated)
Qualitative Label: satisfied

Compound: O=C(CCN1C(=O)c2ccccc2C1=O)Nc1ccc(Cl)cc1
Qualitative Label: satisfied

Compound: CC(C)CCNCC(O)Cn1c2ccccc2c2ccccc21 (configuration not stated)
Qualitative Label: not satisfied

Compound: CCN(CCO)CCNc1ccc(C)c2sc3cc(Cl)ccc3c(=O)c12
Qualitative Label: not satisfied

Compound: COc1ccc(/C=C2\SC(=Nc3ccccc3)NC2=O)cc1
Qualitative Label: not satisfied

---

# System: OVCAR-8 ovarian
# Method: NCI-60 one-dose screen, 48 h (100 = growth as untreated, 0 = no growth, -100 = all killed)
# Experimental Conditions: 10 µM unless noted
Compounds without any hit were thinned out: in the full panel of roughly 83,000, 20% have a hit.
Exam item: assign T to entries whose growth is below 90% and F to entries at or above 90%. Note that a value of exactly 90% receives F.

Molecule: CC(=O)SC1CC(=O)C=C2CCC3C4CCC(=O)OC4(C)CCC3C21C (stereo unspecified)
Qualitative Label: F

Molecule: Cc1ccc(S(=O)c2ccc([N+](=O)[O-])c3nonc23)cc1 (stereo unspecified)
Qualitative Label: F

Molecule: O=C(Nc1ccc(Cl)cc1F)c1cc(F)ccc1O
Qualitative Label: T

Molecule: N#Cc1c(N)nc2c(c1N)C(c1ccc(F)cc1)c1ccc(N)cc1O2 (stereo unspecified)
Qualitative Label: F

Molecule: COc1ccccc1C(=O)/C=C/c1ccccc1
Qualitative Label: T

---

Examples of compounds with documented growth follow.
# Test system: OVCAR-3 ovarian
# Method: NCI-60 one-dose screen, 48 h (100 = growth as untreated, 0 = no growth, -100 = all killed)
# Experimental Conditions: 10 µM unless noted
Compounds without any hit were thinned out: in the full panel of roughly 83,000, 20% have a hit.

Compound: O=c1c(-c2nc3ccccc3[nH]2)cc2ccccc2n1Cc1cn(Cc2ccccc2Cl)nn1
Unit Text: %
growth: 19.8
//
Compound: O=C1C(Cl)=C(NCc2ccco2)C(=O)c2ccccc21
Unit Text: %
growth: 84.6
//
Compound: COc1ccc(CCN2C(=O)CCSC2=S)cc1OC
Unit Text: %
growth: 105
//
Compound: COc1ccc(Cn2c(Br)c3c(c2-c2cc(OC)c(OC)c(OC)c2)CCc2sc(NC(C)=O)nc2-3)cc1
Unit Text: %
growth: -14.4
//
Compound: CCOC(=O)c1cc2c(n1Cc1cc(OC)c(OC)c(OC)c1)-c1oncc1CCC2
Unit Text: %
growth: -22
//
Compound: NCCNc1nc2ccc(F)cc2c2c(=O)c3cc(F)ccc3sc12
Unit Text: %
growth: 38.1
//
Compound: COc1ccc(-c2nocc2-c2cccs2)cc1
Unit Text: %
growth: 108
//
Compound: COC(=O)/C(CCC=C(C)C)=C1\[C@@H](OC(C)=O)C[C@@]2(C)[C@H]1C[C@@H](O)[C@H]1[C@@]3(C)CC[C@H](NCCCNCCCCNCCCN)[C@@H](C)[C@@H]3CC[C@@]12C
Unit Text: %
growth: 83
//
Compound: c1ccc(CNc2nc(Nc3ccccc3)nc3ccccc23)cc1
Unit Text: %
growth: 39.6
//
Compound: Cc1cc2c(c(C)c1Cl)C(=O)/C(=C/c1cccc([N+](=O)[O-])c1)O2
Unit Text: %
growth: 107
//
Compound: COC(=O)c1c2c(c(C)[n+]([O-])c1C)C(=O)C=C(NCc1ccc(F)c(F)c1)C2=O
Unit Text: %
growth: -47.2
//
Compound: CCC1=C[C@]2(C3CC(=O)N(c4ccccc4)C3=O)CC(C(C)(C)C)C[C@@H]2[C@@H]2C(=O)N(c3ccccc3)C(=O)[C@H]12 (stereo not given in full)
Unit Text: %
growth: 86
//
Compound: COc1ccc(-c2nc(-c3ccccc3)c(-c3ccccc3)[nH]2)cc1OC1CCCCC1
Unit Text: %
growth: 72.6
//
Compound: Cc1nc2ccccc2c(/C=C/c2ccccc2)c1C(=O)/C=C/c1ccc(Cl)cc1
Unit Text: %
growth: -40.5
//
Compound: Nc1nc(-c2ccccc2Br)nn1-c1nc2ccccc2s1
Unit Text: %
growth: 108
//
Compound: O=c1oc2ccc(Br)cc2c(=O)n1-c1ccc(Cl)cc1F
Unit Text: %
growth: 7.85
//
Compound: O=C1c2cc(Cl)ccc2Oc2cc([N+](=O)[O-])ccc2N1c1ccc(F)cc1F
Unit Text: %
growth: 106
//
Compound: O=S(=O)(Nc1ncccn1)c1ccc(NC2Nc3nc4ccccc4nc3S2)cc1 (stereo not given)
Unit Text: %
growth: 109
//
Compound: Nc1ccc(C2c3ccccc3Oc3ccccc32)cc1
Unit Text: %
growth: 96.4
//
Compound: COc1ccc2oc(=O)cc(Cn3cc(Cn4cnc5c4c(=O)n(C)c(=O)n5C)nn3)c2c1
Unit Text: %
growth: 110
